# Tgt: T1, mature human TGF-β3 (human, UniProt P10600 301-412)
# T1 construct: Bought protein (RDI, Cat # RDI-1036/CF); also called TGF-b3
# T1 sequence: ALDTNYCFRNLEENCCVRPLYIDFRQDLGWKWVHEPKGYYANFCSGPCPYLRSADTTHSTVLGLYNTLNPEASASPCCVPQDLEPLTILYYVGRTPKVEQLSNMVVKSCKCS
# Assay comment: BIAcore 2000 SPR, antibody captured on Protein A, TGF-β injected
Readout: kon (M⁻¹ s⁻¹)
Respond with the bare value in M⁻¹ s⁻¹.

Example results:
Binder	kon / M⁻¹ s⁻¹
mAb 12.4 (antibody, human IgG4 S228P, kappa, V domains shown, Full-length monoclonal antibody, made by linking the Fab to an IgG4 Fc region) VH: QVQLVQSGAEVKKPGASVKVSCKASGYTFTSYWMNWVRQAPGQGLEWMGQIFPALGSTNYGEMFEGRVTMTTDTSTSTAYMELRSLRSDDTAVYYCARGIGNYALDAMDYWGQGTLVTVSS VL: DIQMTQSPSSLSASVGDRVTITCRASESVDWWGNSFMHWYQQKPGKAPKLLIYLASNLESGVPSRFSGSGSGTDFTLTISSLQPEDFATYYCQQNIEDPLTFGGGTKVEIKR	1.76e+07
mAb 3.A (antibody, human IgG4 S228P, kappa, V domains shown, Full-length monoclonal antibody, made by linking the Fab to an IgG4 Fc region) VH: QVQLVQSGAEVKKPGASVKVSCKASGYTFTSYWMNWVRQAPGQGLEWMGQIFPASGSTNYGEMFEGRVTMTTDTSTSTAYMELRSLRSDDTAVYYCARGIGNYALDAMDYWGQGTLVTVSS VL: DIQMTQSPSSLSASVGDRVTITCRASESVDFWGNSFMHWYQQKPGKAPKLLIYLASNLESGVPSRFSGSGSGTDFTLTISSLQPEDFATYYCQQNIEDPLTFGGGTKVEIKR	2.9e+07
mAb 12.7 (antibody, human IgG4 S228P, kappa, V domains shown, Full-length monoclonal antibody, made by linking the Fab to an IgG4 Fc region) VH: QVQLVQSGAEVKKPGASVKVSCKASGYTFTSEWMNWVRQAPGQGLEWMGQIFPALGSTNYNEMYEGRVTMTTDTSTSTAYMELRSLRSDDTAVYYCARGIGNYALDAMDYWGQGTLVTVSS VL: DIQMTQSPSSLSASVGDRVTITCRASESVDFYGNSFMHWYQQKPGKAPKLLIYLASNLESGVPSRFSGSGSGTDFTLTISSLQPEDFATYYCQQNIEDPLTFGGGTKVEIKR	1.56e+07

Ask: # query: kon of entry mAb 12.8 (antibody, human IgG4 S228P, kappa, V domains shown, Full-length monoclonal antibody, made by linking the Fab to an IgG4 Fc region) VH: QVQLVQSGAEVKKPGASVKVSCKASGYTFTSYWMNWVRQAPGQGLEWMGQIFPALGSTNYNEMFEGRVTMTTDTSTSTAYMELRSLRSDDTAVYYCARGIGNYALDAMDYWGQGTLVTVSS VL: DIQMTQSPSSLSASVGDRVTITCRASESVDWYGNSFMHWYQQKPGKAPKLLIYYASNLESGVPSRFSGSGSGTDFTLTISSLQPEDFATYYCQQNAEDPLTFGGGTKVEIKR
Result: 1.85e+07

Ask: # query: kon of entry mAb 4.17 (antibody, human IgG4 S228P, kappa, V domains shown, Full-length monoclonal antibody, made by linking the Fab to an IgG4 Fc region) VH: QVQLVQSGAEVKKPGASVKVSCKASGYTFTSYWMNWVRQAPGQGLEWMGQIFPFSGSTNYNEMFEGRVTMTTDTSTSTAYMELRSLRSDDTAVYYCARGIGNYALDAMDYWGQGTLVTVSS VL: DIQMTQSPSSLSASVGDRVTITCRASESVDFWGNSFMHWYQQKPGKAPKLLIYLASNLESGVPSRFSGSGSGTDFTLTISSLQPEDFATYYCQQNAEDPLTFGGGTKVEIKR
Result: 2.17e+07

# credit: patent US20090155285A1
